test_description: Quantitative thermodynamic solubility determination at ambient temperature, evaporated solids analyzed by XRPD
Assay type: physicochemical
applied_conditions: organic solvent or mixture, thermodynamic from solid; Isopropyl acetate, ambient temperature
observable: solubility

Inquiry: Which solubility value is on record for C=C(C)[C@@H]1CCC(C)=C[C@H]1c1c(O)cc(CCCCC)cc1O [crude cannabidiol, cannabidiol] ?
Reply text: > 100 mg/mL

* * *

test_description: Quantitative thermodynamic solubility determination at ambient temperature, evaporated solids analyzed by XRPD
Assay type: physicochemical
applied_conditions: organic solvent or mixture, thermodynamic from solid; Cyclohexane, ambient temperature
observable: solubility

Inquiry: Which solubility value is on record for "C=C(C)[C@@H]1CCC(C)=C[C@H]1c1c(O)cc(CCCCC)cc1O" ?
Reply text: > 100 mg/mL

* * *

test_description: Quantitative thermodynamic solubility determination at ambient temperature, evaporated solids analyzed by XRPD
Assay type: physicochemical
applied_conditions: organic solvent or mixture, thermodynamic from solid; Tetrahydrofuran, ambient temperature
observable: solubility

Inquiry: Which solubility value is on record for "C=C(C)[C@@H]1CCC(C)=C[C@H]1c1c(O)cc(CCCCC)cc1O" ?
Reply text: > 100 mg/mL

* * *

test_description: Cannabidiol solubility in neat solvents and mixtures, isooctane solubility curve
Assay type: physicochemical
applied_conditions: anisole, organic solvent or mixture; read-out: Solubility at RT
observable: solubility

Inquiry: Which solubility value is on record for C=C(C)[C@@H]1CCC(C)=C[C@H]1c1c(O)cc(CCCCC)cc1O [CBD] ?
Reply text: > 100 mg/mL

* * *

test_description: Cannabidiol solubility in neat solvents and mixtures, isooctane solubility curve
Type: physicochemical
applied_conditions: MeOH, organic solvent or mixture; read-out: Solubility at RT
observable: solubility

Inquiry: Which solubility value is on record for C=C(C)[C@@H]1CCC(C)=C[C@H]1c1c(O)cc(CCCCC)cc1O [CBD] ?
Reply text: > 100 mg/mL

* * *

test_description: Quantitative thermodynamic solubility determination at ambient temperature, evaporated solids analyzed by XRPD
Format: physicochemical
applied_conditions: organic solvent or mixture, thermodynamic from solid; Heptane, ambient temperature
observable: solubility (mg/mL)
Just the number please, in mg/mL, no unit attached.

Inquiry: Which solubility value is on record for "C=C(C)[C@@H]1CCC(C)=C[C@H]1c1c(O)cc(CCCCC)cc1O" ?
Reply text: 64.6

* * *

test_description: Cannabidiol solubility in neat solvents and mixtures, isooctane solubility curve
Assay type: physicochemical
applied_conditions: isobutanol, organic solvent or mixture; read-out: Solubility at RT
observable: solubility

Inquiry: Which solubility value is on record for "C=C(C)[C@@H]1CCC(C)=C[C@H]1c1c(O)cc(CCCCC)cc1O" ?
Reply text: > 100 mg/mL

* * *

test_description: Cannabidiol solubility in neat solvents and mixtures, isooctane solubility curve
Type: physicochemical
applied_conditions: MeTHF, organic solvent or mixture; read-out: Solubility at RT
observable: solubility

Inquiry: Which solubility value is on record for "C=C(C)[C@@H]1CCC(C)=C[C@H]1c1c(O)cc(CCCCC)cc1O" ?
Reply text: > 100 mg/mL

Hello, the source for this data is patent US12144795B2, in case you need it.
